# tested_on: T1, human serum albumin (human, UniProt P02768 25-609)
# T1 construct: also called HSA
# assay_name: ELISA

binder	binding result
AB131 (antibody, human IgG1, V domains shown, Tested as purified recombinant whole human IgG1 (Expi293F); also called 06-AB-131; anti-whole cell mAb) VH: QVQLVQSGGGVVQPGGSLRLSCAASPFTFKTSILHWVRQAPGKGLEWVSAMSYDGFSKYYADSVKGRLTISRDSSTNTLYLEMNSLRFEDTALYFCAREAYTSGRAGCFNPWGQGVLVSVSS VL: DIVMTQTPSTQSASVGDRVTITCRASQSISIWLAWYQQKPGKAPKLLIHDASTLESGVPSRFSGSGSGTEFTLTISSLQPDDSATYYCQRYNDYPPTFGPGTKVEIK	no binding
AB123 (antibody, human IgG1, V domains shown, Tested as purified recombinant whole human IgG1 (Expi293F); also called 06-AB-123; anti-Hyr1 mAb) VH: EVQLLESGGGVVQPGRSLRLSCAASGFTFSNYGMHWVRQAPGKGLEWVAVVWFDGSYKYYTDSVKGRFTISRDNSKSTLYLQMNSLRAEDTAVYYCVSPIMTSAFDIWGPGTMVSVSS VL: QLVLTQPPSASGSPGQSVTISCTGTSSDVGGSNFVSWYQHHPGKAPKLMIYEVSQRPSGVPDRFSGSKSGNTASLTVSGLQADDEADYYCSSYAGSVVLFGGGTKLTVL	no binding
AB135 (antibody, human IgG1, V domains shown, Tested as purified recombinant whole human IgG1 (Expi293F); also called 06-AB-135; anti-whole cell mAb) VH: EVQLVETGGGLVQPGGSLRLSCVVSGFTFSSHAMSWVRQAPGKGLEWVSSISISGGDTFYADSVRGRFTIFRDNSKNTVYLQMNSLRAEDTAVYYCATETSPNDYWGQGTLVTVSS VL: SYELTQPSSLTVSPGGTVTLTCGLSSGAVTSGHYPYWFQQKPGQAPKTLIFDTSRKHSWTPARFSGSLLGGKAALTLSGAQPEDDADYYCLLACNGACVFGGGTKLTVL	no binding
